Target: human orexin-2 receptor (OX2R) (Homo sapiens)
Construct: expressed in transfected cells; host or cells: CHO cells (G418 selection)
Sequence (O43614 1-444): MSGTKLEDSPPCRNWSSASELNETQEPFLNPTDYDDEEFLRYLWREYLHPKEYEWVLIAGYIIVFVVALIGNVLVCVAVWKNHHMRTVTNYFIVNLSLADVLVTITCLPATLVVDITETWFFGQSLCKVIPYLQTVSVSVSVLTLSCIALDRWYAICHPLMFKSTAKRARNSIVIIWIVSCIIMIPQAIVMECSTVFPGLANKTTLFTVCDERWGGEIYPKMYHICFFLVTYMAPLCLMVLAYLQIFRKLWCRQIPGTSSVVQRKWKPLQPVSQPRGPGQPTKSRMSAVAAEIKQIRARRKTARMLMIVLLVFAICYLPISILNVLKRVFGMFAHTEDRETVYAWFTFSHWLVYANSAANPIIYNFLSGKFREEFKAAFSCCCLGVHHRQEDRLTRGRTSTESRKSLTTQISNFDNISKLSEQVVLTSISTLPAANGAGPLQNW
Assay: In vitro orexin antagonism assay: intracellular calcium measurement (FLIPR), orexin-A 3 nM as agonist
Type: cell-based
Settings: read-out: OX2R, % Inh. @ 1 uM
readout label: inhibition at 1 µM (%)

O=C(c1c(-c2ccccc2)nc2cc(C(F)(F)F)ccn12)N1CC[C@H]1Cn1ccc(-c2ccc(F)cn2)n1 39
O=C(c1c(-c2ccccc2)nc2cc(F)ccn12)N1CCC[C@H]1Cn1ccc(-c2ccc(F)cc2)n1 89
O=C(c1c(-c2ncccn2)nn2ccccc12)N1CCC[C@H]1Cn1ccc(-c2ccccc2)n1 91

[A] O=C(c1nn2cccnc2c1-c1ccccn1)N1CCC[C@H]1Cn1cc(-c2ccccn2)cn1
[B] O=C(c1nc2ccccn2c1-c1ccccn1)N1CCC[C@H]1Cc1nc(-c2ccccn2)no1
Challenge: Field: lower recorded inhibition at 1 µM (choose A or B ) State the label of the item chosen.
Response given: B
(B: 4%, A: 65%)

[I] O=C(c1c(-c2ccccn2)nn2ccccc12)N1CCC[C@H]1Cn1ccc(-c2ccc(F)cn2)n1
[II] O=C(c1nn2ccccc2c1-c1ccccc1)N1CC[C@H]1Cn1ccc(-c2ccc(F)cn2)n1
Challenge: Short answer wanted: higher inhibition at 1 µM, I or II ? Indicate your choice by writing its label.
Response given: I
(I: 98%, II: 38%)

[a] O=C(c1nn2ccccc2c1-c1ccccc1)N1CCC[C@H]1COc1ccc(C(F)(F)F)cn1
[b] [2H]C1([2H])CC[C@@]([2H])(COc2ccc(C(F)(F)F)cn2)N1C(=O)c1nn2c(c1-c1ccccc1)COCC2
Challenge: Between a and b , which one shows the larger inhibition at 1 µM value? Indicate your choice by writing its label.
Response given: a

###

Target: Orexin type 1 (OX1R) receptor (Homo sapiens, UniProt O43613)
Construct: expressed in transfected cells; host or cells: CHO cells (G418 selection)
Sequence (O43613 whole entry): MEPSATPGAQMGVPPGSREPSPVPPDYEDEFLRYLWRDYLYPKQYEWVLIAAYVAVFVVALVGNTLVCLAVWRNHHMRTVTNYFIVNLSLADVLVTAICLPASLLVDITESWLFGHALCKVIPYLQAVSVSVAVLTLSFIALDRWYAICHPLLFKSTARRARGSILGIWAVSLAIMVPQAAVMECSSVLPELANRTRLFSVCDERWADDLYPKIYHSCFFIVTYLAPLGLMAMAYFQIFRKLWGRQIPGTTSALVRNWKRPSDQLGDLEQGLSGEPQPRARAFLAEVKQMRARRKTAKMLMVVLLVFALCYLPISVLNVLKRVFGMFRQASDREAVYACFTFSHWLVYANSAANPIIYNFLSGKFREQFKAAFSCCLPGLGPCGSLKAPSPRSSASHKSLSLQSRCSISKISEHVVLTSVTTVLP
Assay: In vitro orexin antagonism assay: intracellular calcium measurement (FLIPR), orexin-A 3 nM as agonist
Assay type: cell-based
Details: second value of IC50/Kb cell
Experimental: In Vitro Orexin Antagonism Measurement Assay: Intracellular Calcium Measurements: […] Within the Fluorescent Imaging Plate Reader (FLIPR Tetra, Molecular Devices), antagonists are added to the plate in a volume of 10 μL/well, incubated for 120 min and finally 10 μL/well of agonist is added. […] The calculated IC50values may fluctuate depending on the daily cellular assay performance. […]
readout label: Kb (nM)

Consider the reported Kb for these compounds:
O=C(c1c(-c2ccccc2)nn2ccccc12)N1CCCC[C@H]1CNc1ccc(C(F)(F)F)cn1 4
O=C(c1nc2n(c1-c1ccccn1)CCOC2)N1CCC[C@H]1Cn1cc(-c2ccc(F)cn2)cn1 25
O=C(c1c(-c2ccc(F)cc2)nn2ccccc12)N1CCC[C@H]1Cn1ccc(-c2ccc(C(F)(F)F)cc2)n1 121
C[C@@H]1CCCN(C(=O)c2c(-c3ccc(F)cc3)nn3ccccc23)[C@@H]1CNc1ccc(C(F)(F)F)cn1 6
O=C(c1nc2n(c1-c1ccccn1)CCOC2)N1CCC[C@H]1Cn1cc(-c2ccccn2)cn1 45

[I] O=C(c1nc2ccccn2c1-c1ccccn1)N1CCC[C@H]1Cn1cc(-c2ccc(F)cn2)cn1
[II] O=C(c1nn2ccccc2c1-c1ccccc1)N1CCC[C@H]1Cn1cc(-c2ccc(F)cn2)cn1
Challenge: I'm curious whether I or II has the smaller Kb number. Which is it? Reply with the label of the item you choose.
Response given: II
(II: 0.8 nM, I: 8 nM)
